Origin of measurements: patent US20250282874A1

Biological target: T1, human PD-L1-His (human, UniProt Q9NZQ7 19-238, limits assumed)
T1 construct: not shown: His tag
Experiment: ELISA, human PD-L1-His coated, anti-human IgG-HRP, OD450
Parameter: pEC50. Scope: all listed entries.
pEC50 (log units): -log10 of the concentration in mol/L.

Recorded pEC50, per entry:
1) Hu4B6_HdLa (antibody, human IgG1, V domains shown) VH: QVQLVQSGAEVKKPGASVKVSCKASGYVFTDYYMNWVRQAPGQSLEWMGDINPNNGGTSYNHKFKGRVTVTVDKSISTAYMELSRLRSDDTAVYYCVKWGDGPFAYWGQGTLVTVSS VL: DIQMTQSPSSLSASVGDRVTITCKASQNVGAAVAWYQQKPGKAPKLLIYSASNRYTGVPSRFSGSGSGTDFTLTISSLQPEDIATYYCQQYSNYPTFGQGTKLEIK ... 8.98
2) Hu4B6_HaLb (antibody, human IgG1, V domains shown) VH: QVQLVQSGAEVKKPGASVKVSCKASGYTFTDYYMNWVRQAPGQGLEWMGDINPNNGGTSYNHKFKGRVTVTVDTSISTAYMELSRLRSDDTAVYYCARWGDGPFAYWGQGTLVTVSS VL: DIQMTQSPSSLSASVGDRVTITCKASQNVGAAVAWYQQKPGKSPKLLIYSASNRYTGVPDRFSGSGSGTDFTLTISSLQPEDIATYYCQQYSNYPTFGQGTKLEIK ... 8.20

Shift focus to the following entry.
IN: Item Hu4B6_HbLb (antibody, human IgG1, V domains shown) VH: QVQLVQSGAEVKKPGASVKVSCKASGYTFTDYYMNWVRQAPGQGLEWMGDINPNNGGTSYNHKFKGRVTVTVDTSISTAYMELSRLRSDDTAVYYCVKWGDGPFAYWGQGTLVTVSS VL: DIQMTQSPSSLSASVGDRVTITCKASQNVGAAVAWYQQKPGKSPKLLIYSASNRYTGVPDRFSGSGSGTDFTLTISSLQPEDIATYYCQQYSNYPTFGQGTKLEIK : provide pEC50
OUT: 8.55
